Biological target: JAK3 (Homo sapiens)
Construct: The Ramos B-cell line was acquired from ATCC (ATCC Catalog No. CRL-1596)
Test: Assay for CD23 expression on Ramos B-cells stimulated by IL-4 (Table IV: ability to inhibit JAK3 activity)
Details: tested under conditions described in Example 3 (so in the source)
Where a name gives a salt, the structure may show the parent alone.
Recorded IC50 by entry

Would you kindly share the measured IC50 for CCCNC(=O)c1ccc(Nc2ncc(F)c(Nc3ccc4oc(=O)[nH]c4c3)n2)cc1 [Compound I-160, formate salt] ? < 500 nM

Follow-up item: O=c1[nH]c2cc(Nc3nc(Nc4cc(F)cc(Cl)c4)ncc3Cl)ccc2o1 [Compound I-8, formate salt] < 500 nM

Follow-up item: COc1cc(Nc2ncc(F)c(Nc3cc(F)c4oc(=O)[nH]c4c3)n2)cc(C)c1C [Compound I-112, trifluoroacetate salt] < 500 nM

Follow-up item: COc1cc(Nc2ncc(C)c(Nc3ccc4oc(=O)[nH]c4c3)n2)ccn1 < 500 nM

Follow-up item: Cc1ccc(Nc2ncc(F)c(Nc3ccc4oc(=O)[nH]c4c3)n2)cc1 [Compound I-202, trifluoroacetate salt] 500 to 5000 nM

Follow-up item: COC(=O)c1cnc(Nc2cc(C)c(F)c(C)c2)nc1Nc1ccc2oc(=O)[nH]c2c1 [Compound I-74, trifluoroacetate salt] 5000 to 10000 nM

Follow-up item: Cc1cc(Nc2nc(Nc3cccc(S(N)(=O)=O)c3)ncc2F)cc2[nH]c(=O)oc12 [Compound I-171, trifluoroacetate salt] < 500 nM

###

Target: JAK3 (Homo sapiens, UniProt P52333)
Construct: The Ramos B-cell line was acquired from ATCC (ATCC Catalog No. CRL-1596)
Experiment: Assay for CD23 expression on Ramos B-cells stimulated by IL-4 (Table IV: ability to inhibit JAK3 activity)
Conditions: tested under conditions described in Example 3 (so in the source)
Experimental: One means of assaying for such inhibition is detection of the effect of the 2,4-pyrimidinediamine compounds on the upregulation of downstream gene products. […] 20 to 24 hours post stimulation, cells are stained for upregulation of CD23 and analyzed using FACS. […]
pIC50: −log10 of the molar value. Structures can show the parent of a compound that is named as a salt.
reported-metric: pIC50

// worked examples, pIC50 included
{"columns": ["compound", "result"],
 "data": [
  ["Cc1ccc(Nc2ncc(C)c(Nc3ccc4oc(=O)[nH]c4c3)n2)cc1N(C)C", "> 6.30"],
  ["Cc1ccc(Nc2ncc(C)c(Nc3ccc4oc(=O)[nH]c4c3)n2)cc1C(=O)O", "5.00 to 5.30"],
  ["CN1CCN(c2cc(F)cc(Nc3ncc(F)c(Nc4ccc5oc(=O)[nH]c5c4)n3)c2)CC1 [Compound I-170, ditrifluoroacetate salt]", "> 6.30"]
]}

Notebook: pull reported pIC50 for JAK3 (Homo sapiens, UniProt P52333), entry Cc1cc(Nc2ncc([N+](=O)[O-])c(Nc3ccc4oc(=O)[nH]c4c3)n2)cc(C)c1C [Compound I-42, trifluoroacetate salt] < 5.00

Follow-up item: CCCCc1ccc(Nc2ncc(C)c(Nc3ccc4oc(=O)[nH]c4c3)n2)cc1C 5.00 to 5.30

Follow-up item: COc1cc(Nc2ncc(C)c(Nc3ccc4oc(=O)[nH]c4c3)n2)cc(C)c1CO [Compound I-129, trifluoroacetate salt] > 6.30

Follow-up item: CCOc1cc(Nc2ncc(C)c(Nc3ccc4oc(=O)[nH]c4c3)n2)cc(C)c1C [Compound I-103, ditrifluoroacetate salt] > 6.30

Follow-up item: Cc1ccc(Nc2ncc(Cl)c(Nc3ccc4oc(=O)[nH]c4c3)n2)cc1N(C)C > 6.30

Follow-up item: COc1cccc(Nc2nccc(Nc3ccc4oc(=O)[nH]c4c3)n2)c1F 5.30 to 6.30

###

Target: JAK3 (Homo sapiens, UniProt P52333)
Construct: The Ramos B-cell line was acquired from ATCC (ATCC Catalog No. CRL-1596)
Sequence (P52333 1-1124): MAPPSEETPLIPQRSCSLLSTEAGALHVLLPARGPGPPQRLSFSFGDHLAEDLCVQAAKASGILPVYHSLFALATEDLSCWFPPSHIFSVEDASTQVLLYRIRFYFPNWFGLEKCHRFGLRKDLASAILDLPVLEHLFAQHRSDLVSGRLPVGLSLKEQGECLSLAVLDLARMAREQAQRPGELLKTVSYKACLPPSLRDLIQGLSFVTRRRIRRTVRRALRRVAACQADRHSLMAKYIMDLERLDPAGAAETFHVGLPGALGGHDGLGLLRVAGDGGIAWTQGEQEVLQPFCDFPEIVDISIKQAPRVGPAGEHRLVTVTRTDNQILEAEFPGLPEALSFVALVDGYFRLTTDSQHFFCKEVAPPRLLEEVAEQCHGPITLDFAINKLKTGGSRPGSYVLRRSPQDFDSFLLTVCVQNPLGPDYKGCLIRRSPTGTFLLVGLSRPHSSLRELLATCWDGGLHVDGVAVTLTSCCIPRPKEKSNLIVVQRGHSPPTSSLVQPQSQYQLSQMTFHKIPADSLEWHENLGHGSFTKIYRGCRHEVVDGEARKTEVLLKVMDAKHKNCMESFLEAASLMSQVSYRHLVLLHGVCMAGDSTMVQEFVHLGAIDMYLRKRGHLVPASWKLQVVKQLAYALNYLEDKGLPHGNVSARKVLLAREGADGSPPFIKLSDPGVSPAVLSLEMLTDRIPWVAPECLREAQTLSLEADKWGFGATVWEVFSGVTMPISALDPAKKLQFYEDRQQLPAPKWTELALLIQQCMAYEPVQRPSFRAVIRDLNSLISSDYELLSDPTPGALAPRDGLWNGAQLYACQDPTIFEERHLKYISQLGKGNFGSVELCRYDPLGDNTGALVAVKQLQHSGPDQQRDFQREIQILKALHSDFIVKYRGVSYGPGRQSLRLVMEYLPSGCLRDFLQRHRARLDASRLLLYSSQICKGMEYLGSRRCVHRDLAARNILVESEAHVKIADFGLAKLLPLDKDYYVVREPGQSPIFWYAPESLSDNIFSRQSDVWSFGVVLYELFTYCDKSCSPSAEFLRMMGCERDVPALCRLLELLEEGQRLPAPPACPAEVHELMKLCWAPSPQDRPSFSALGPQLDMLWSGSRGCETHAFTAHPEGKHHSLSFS
Assay: Assay for CD23 expression on Ramos B-cells stimulated by IL-4 (Table IV: ability to inhibit JAK3 activity)
Details: tested under conditions described in Example 3 (so in the source)
pIC50: −log10 of the molar value. Where a name gives a salt, the structure may show the parent alone.
reported-metric: pIC50

{"columns": ["compound", "tested-on", "result"],
 "data": [
  ["COC(=O)c1cnc(Nc2cc(C)c(F)c(OC)c2)nc1Nc1ccc2oc(=O)[nH]c2c1 [Compound I-58, trifluoroacetate salt]", "JAK3 (Homo sapiens, UniProt P52333)", "< 5.00"],
  ["COc1c(F)ccc(Nc2ncc([N+](=O)[O-])c(Nc3ccc4oc(=O)[nH]c4c3)n2)c1F [Compound I-43, trifluoroacetate salt]", "JAK3 (Homo sapiens, UniProt P52333)", "< 5.00"],
  ["Cc1cc(Nc2ncc(CO)c(Nc3ccc4oc(=O)[nH]c4c3)n2)cc(C)c1F [Compound I-79, trifluoroacetate salt]", "JAK3 (Homo sapiens, UniProt P52333)", "> 6.30"],
  ["COc1cc(Nc2ncc(C)c(Nc3ccc4oc(=O)n(C)c4c3)n2)cc(C)c1C [Compound I-125, trifluoroacetate salt]", "JAK3 (Homo sapiens, UniProt P52333)", "> 6.30"],
  ["CCOc1ccc(Nc2ncc(C)c(Nc3ccc4oc(=O)[nH]c4c3)n2)c(F)c1OCC", "JAK3 (Homo sapiens, UniProt P52333)", "> 6.30"],
  ["Cc1cnc(Nc2cc(C)c(C)c(C)c2)nc1Nc1cc(/C=C/CCl)c2oc(=O)[nH]c2c1", "JAK3 (Homo sapiens, UniProt P52333)", "5.30 to 6.30"]
]}

For the next question, use this compound.
Would you kindly share the measured pIC50 for N#Cc1cccc(Nc2ncc(Cl)c(Nc3ccc4oc(=O)[nH]c4c3)n2)c1F [Compound I-73, trifluoroacetate salt] ? > 6.30

###

Target: JAK3 (Homo sapiens)
Construct: The Ramos B-cell line was acquired from ATCC (ATCC Catalog No. CRL-1596)
Assay: Assay for CD23 expression on Ramos B-cells stimulated by IL-4 (Table IV: ability to inhibit JAK3 activity)
Settings: tested under conditions described in Example 3 (so in the source)
pIC50: −log10 of the molar value. Counter-ions that a name gives are not always drawn.
reported-metric: pIC50

// worked examples, pIC50 included
{"columns": ["compound", "result"],
 "data": [
  ["COc1cccc(Nc2ncc(Br)c(Nc3ccc4oc(=O)[nH]c4c3)n2)c1F [Compound I-22, trifluoroacetate salt]", "> 6.30"],
  ["[2H]C([2H])([2H])c1c(C)cc(Nc2ncc(Cl)c(Nc3ccc4oc(=O)[nH]c4c3)n2)cc1C [Compound I-36, trifluoroacetate salt]", "> 6.30"]
]}

For the next question, use this compound.
Would you kindly share the measured pIC50 for COc1cc(Nc2ncc(C)c(Nc3ccc4oc(=O)n(COP(=O)(O)O)c4c3)n2)cc(C)c1C [Compound I-115, phosphate] ? 5.30 to 6.30
